assay: Inhibition of Escherichia coli MetAP
IC50 listing for selected compounds.
readout: IC50 (nM)

# compound, measured-result
measured = [
    ("Nc1ccc2[nH]c(-c3ccccn3)nc2c1", 970),
    ("Oc1cccc(-c2nc3ccccc3[nH]2)n1", 1300),
    ("O=C(Nc1nccs1)c1ccccn1", 60),
    ("Cc1cc2nc(-c3cscn3)[nH]c2cc1C", 10000),
    ("Oc1cccc2cccnc12 [OXYQUINOLINE]", 770),
    ("c1ccc2[nH]c(Nc3nccs3)nc2c1", 540),
    ("c1ccc(-c2nc3cc[nH]cc-3n2)nc1", 550),
    ("c1cc2[nH]c(-c3cscn3)nc2cn1", 1700),
    ("Fc1ccc2nc(-c3ccccn3)[nH]c2c1", 1500),
    ("c1ccc2[nH]c(-c3cscn3)nc2c1 [THIABENDAZOLE]", 470),
    ("N#Cc1ccc2[nH]c(-c3ccccn3)nc2c1", 430),
    ("Cc1cc2nc(-c3ccccn3)[nH]c2cc1C", 2400),
    ("c1ccc(-c2nc3ccccc3[nH]2)nc1", 570),
    ("Nc1ccc2[nH]c(-c3cscn3)nc2c1", 3400),
    ("O=[N+]([O-])c1ccc2[nH]c(-c3ccccn3)nc2c1", 160),
    ("CC(C)(C)c1ccc2[nH]c(-c3cscn3)nc2c1", 3900),
]

====

tested on: Escherichia coli; assay: Inhibition of Escherichia coli MetAP at 25 uM
Activity calls are given as the source filed them. No cut-off for these calls is given here.
readout: inhibition

# compound, measured-result
measured = [
    ("COC(=O)Nc1nc2ccccc2[nH]1", "34%"),
    ("O=S(=O)(Nc1nccs1)c1ccccn1", "23%"),
    ("c1cncc(-c2nc3ccccc3[nH]2)c1", "inactive"),
    ("O=C(Nc1nccs1)c1ccc([N+](=O)[O-])cc1", "inactive"),
    ("O=S(=O)(Oc1cccc2cccnc12)c1ccccc1", "inactive"),
    ("O=S(=O)(Nc1cccc2cccnc12)c1ccccc1", "93%"),
    ("Oc1ccccc1-c1nc2ccccc2[nH]1", "66%"),
    ("Cc1cc(NS(=O)(=O)c2ccccn2)no1", "21%"),
    ("COC(=O)Nc1nc2cc(Sc3ccccc3)ccc2[nH]1", "inactive"),
    ("O=C(Nc1nccs1)c1ccccn1", "100%"),
    ("c1csc(-c2nc3ccccc3[nH]2)c1", "inactive"),
    ("CCCSc1ccc2[nH]c(NC(=O)OC)nc2c1", "35%"),
    ("c1coc(-c2nc3ccccc3[nH]2)c1", "26%"),
    ("Cc1cc(NC(=O)c2ccccn2)no1", "80%"),
    ("c1ccc2[nH]c(-c3cscn3)nc2c1 [THIABENDAZOLE]", "86.3%"),
    ("Cc1ccc(S(=O)(=O)Oc2cccc3cccnc23)cc1", "inactive"),
    ("COC(=O)Nc1nc2cc(C(=O)c3ccccc3)ccc2[nH]1", "47%"),
    ("Oc1cccc2cccnc12 [OXYQUINOLINE]", "95%"),
    ("O=C(Nc1cccc2cccnc12)c1ccccc1", "inactive"),
    ("O=S(=O)(Oc1cccc2cccnc12)c1ccccn1", "38%"),
    ("O=C(Oc1cccc2cccnc12)c1ccccc1 [BENZOXIQUINE]", "32%"),
]

====

system: Staphylococcus aureus; experiment: Inhibition of Staphylococcus aureus MetAP at 25 uM
Active and inactive are the calls of the source. No cut-off for these calls is given here.
readout: inhibition

# chem-smiles, readout, measured-result
measured = [
    ("Clc1ccc2nc(-c3ccccn3)[nH]c2c1", "inhibition", "16%"),
    ("O=S(=O)(Nc1cccc2cccnc12)c1ccccc1", "inhibition", "47%"),
    ("Oc1cccc2cccnc12", "inhibition", "65%"),
    ("Cc1ccc2nc(-c3ccccn3)[nH]c2c1", "inhibition", "68%"),
    ("c1csc(-c2nc3ccccc3[nH]2)c1", "inhibition", "inactive"),
    ("O=C(Nc1nccs1)c1ccc([N+](=O)[O-])cc1", "inhibition", "inactive"),
    ("O=S(=O)(Oc1cccc2cccnc12)c1ccccc1", "inhibition", "62%"),
    ("N#Cc1ccc2[nH]c(-c3ccccn3)nc2c1", "inhibition", "29%"),
    ("Oc1cccc(-c2nc3ccccc3[nH]2)n1", "inhibition", "47%"),
    ("O=C(Oc1cccc2cccnc12)c1ccccc1", "inhibition", "10%"),
    ("Oc1ccccc1-c1nc2ccccc2[nH]1", "inhibition", "12%"),
    ("c1ccc(-c2nc3ccc[nH]c-3n2)nc1", "inhibition", "76%"),
    ("Fc1ccc2nc(-c3ccccn3)[nH]c2c1", "inhibition", "31%"),
]
